Biological target: T1, human GIP receptor (human, UniProt P48546 22-466)
T1 sequence (looked up): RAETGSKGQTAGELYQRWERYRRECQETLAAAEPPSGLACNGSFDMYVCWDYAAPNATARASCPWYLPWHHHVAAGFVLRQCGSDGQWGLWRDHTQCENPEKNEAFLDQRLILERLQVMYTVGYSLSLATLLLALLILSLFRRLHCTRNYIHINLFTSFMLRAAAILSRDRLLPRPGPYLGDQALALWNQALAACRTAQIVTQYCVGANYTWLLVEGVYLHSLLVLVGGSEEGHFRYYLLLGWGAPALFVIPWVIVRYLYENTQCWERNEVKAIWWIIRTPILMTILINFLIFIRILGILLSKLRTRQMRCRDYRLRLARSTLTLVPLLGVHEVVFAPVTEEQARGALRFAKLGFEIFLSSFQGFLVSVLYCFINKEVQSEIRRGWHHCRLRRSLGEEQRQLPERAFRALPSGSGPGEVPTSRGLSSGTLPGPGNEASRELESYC
Test: cell-based or functional assay
Starred links: 1 amine or outer side, 2 acyl side, 3 side chain; linkers in the order of their positions; H or OH if unused. Non-standard residues stand in square brackets, D forms with d. Groups on a side chain read outwards from the residue. No end group written: not given here. *: point of attachment. C18 diacid = O=C(O)CCCCCCCCCCCCCCCCC(=O)*; γGlu = O=C(O)[C@H](CCC(=O)[*:2])N[*:1]; AEEA = NCCOCCOCC(=O)O; Aib = CC(C)(N)C(=O)O
For each record, check the reported EC50 CreLuc hGIPR 0.5% hP: if it is below 0.4 nM write TRUE, else write FALSE.

binder="Y[Aib]EGTFTSDYSI[Aib]LEKQAQ[Aib]AFVQWLIKGGPSEPASLRHYYNWLTRQRY-NH2 (not fully specified (residue 28)) [Compound 101]" assigned_label=TRUE
binder="YXEGTFTSDYSIXLEEQAQXAFVEWLIKGGPSSGASLRHYYNWLTRQRY (Aib at 2, 13, 20; K28 side chain: C20DA-gGlu-gGlu-gGlu-gGlu-gGlu-gGlu-eLys; C-terminal NH2) [Compound 116]" assigned_label=FALSE
binder="YXEGTFTSDYSILLEKQAQXAFVEWLIKGGPSSGASLRHYYNWLTRQRY (Aib at 2, 20; K28 side chain: C20DA-gGlu-Glu-gGlu-gGlu-gGlu-gGlu-eLys; C-terminal NH2) [Compound 104]" assigned_label=TRUE
binder="YXEGTFTSDYSIXLEKQAQXAFVEWLIKGGPSSGASLRHYXNWLTRQRY (Aib at 2, 13, 20; Tle at 41; K28 side chain: C20DA-gGlu-gGlu-gGlu-gGlu-gGlu-gGlu-eLys; C-terminal NH2) [Compound 133]" assigned_label=FALSE
binder="Y[Aib]EGTFTSDYSI[Aib]LEKQAQ[Aib]AFVQWLIK([AEEA-AEEA-γGlu-γGlu-γGlu-C18 diacid])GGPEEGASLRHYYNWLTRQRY-NH2 [Compound 144]" assigned_label=FALSE
